Values were extracted from PubChem BioAssay (NCI).

Tested on: HCT-15 colon
TEST DESCRIPTION: NCI-60 one-dose screen, 48 h (100 = growth as untreated, 0 = no growth, -100 = all killed)
MEASUREMENT CONDITIONS: 10 µM unless noted
Compounds without any hit were thinned out: in the full panel of roughly 83,000, 20% have a hit.
Hi there, I'd appreciate the recorded growth for every entry that follows.
Numeric only. Scale: %

Form: compound = Cc1ccccc1Nc1n[nH]c(Cc2ccccc2)n1 ; growth = 108

Form: compound = COc1ccc(NC(=O)Cn2c(=O)sc3c(-c4ccc(Cl)cc4)cc(-c4ccc(Cl)cc4)nc32)cc1 ; growth = 93.3

Form: compound = CSc1ccc(/C=C2\C=C(CC(=O)NCc3ccc(C(=O)c4ccccc4)cc3)c3cc(F)ccc32)cc1 ; growth = 5.88

Form: compound = Cc1ccc([C@H]2c3[nH]c4ccccc4c3C[C@H]3C(=O)N(CCCCCCC(=O)NO)CC(=O)N23)cc1 ; growth = 102

Form: compound = COc1cc2ncnc(Nc3ccc(S(=O)(=O)Nc4nccs4)cc3)c2cc1OCCCN1CCOCC1 ; growth = 104
